Source: PubChem BioAssay (Tox21)

assayNotes: qHTS assay to identify small molecule agonists of the hypoxia (HIF-1) signaling pathway - cell viability counter screen (AID 1224844); note: nearly all actives have a fitted effect of over 50% in size
experimentalParameters: HRE-bla ME-180 viability, CellTiter-Glo luminescence, 17 h; series mostly up to 76.8 µM
From the text: National Center for Advancing Translational Sciences [NCATS] NIH Chemical Genomics Center [NCGC] U.S. Environmental Protection Agency [EPA] National Institutes of Environmental Health Sciences [NIEHS] National Toxicology Program [NTP] U.S. Food and Drug Administration [FDA] Hypoxia-inducible factor-1 (HIF-1) is the major hypoxia-regulated transcription factor that controls cellular responses to low oxygen concentration. […]
Records with an inconclusive call do not appear. Activity calls are given as the source filed them. Calls come from the whole dose curve.
Log the outcome using a class from active, inactive

Example entries and their recorded answers appear below.
>>> assignedclass("CN1CCN(C)CC1")
"inactive"
>>> assignedclass("CCSCC")
"inactive"
>>> assignedclass("O=C1OCc2ccccc21")
"inactive"

In: For this molecule, state the assay outcome: CC/C=C(\C)C=O
Out: inactive

In: GET /call?item= CCN(CC)c1ccc(C=O)c(O)c1 returns the recorded outcome of this test.
Out: inactive

In: Identify the outcome logged in this assay for the molecule shown: NCc1cccc(C2CCN(C(=O)c3ccc(C#Cc4ccccc4F)o3)CC2)c1
Out: active

In: Outcome? Nc1ccc2c(S(=O)(=O)O)cccc2c1S(=O)(=O)O
Out: inactive
